Test system: DNA aptamer or structured DNA GGGACGACAGGGATTCGGTTCTCGATAAGTAGTGCCTCGTACGTCGTCCC
Conditions: 10 mM Tris-HCl, pH 7.4
propertyMeasured: pKd
In textbook form, pKd equals minus log to base ten of the concentration in mol/L.

For CN1CC[C@]23c4c5ccc(O)c4O[C@H]2[C@@H](O)C=C[C@H]3[C@H]1C5 , write its pKd.
4.88

###

System: DNA aptamer or structured DNA CTTACGACGCGGACGTTGTGGGGCGTGGCAGTCGGTGAGTCGTAAG
Conditions: 10 mM Tris-HCl, pH 7.4
propertyMeasured: pKd
In textbook form, pKd equals minus log to base ten of the concentration in mol/L.

Check DNA aptamer or structured DNA CTTACGACGCGGACGTTGTGGGGCGTGGCAGTCGGTGAGTCGTAAG data and give pKd for COC(=O)[C@@H]1C2CCC(C[C@@H]1OC(=O)c1ccccc1)N2C (stereo partly specified) .
5.99
